Experiment: Selectivity index, ratio of CC50 for SK6 cells to IC50 for CSFV
Type: toxicity
Conditions: pig, read-out: Ratio CC50/IC50
If the reported selectivity ratio equals or exceeds 4, assign true. If not, assign false.

Examples from the recorded data:
MOL | LABEL CLASS
CC(=O)OC[C@H]1O[C@@H](Sc2ccc(NC(=O)[C@H]3O[C@@H](n4ccc(=O)[nH]c4=O)[C@H](O[Si](C)(C)C(C)(C)C)[C@@H]3O[Si](C)(C)C(C)(C)C)cn2)[C@H](OC(C)=O)[C@@H](OC(C)=O)[C@@H]1OC(C)=O | true
O=C(Nc1ccc(S[C@@H]2O[C@H](CO)[C@@H](O)[C@H](O)[C@H]2O)nc1)[C@H]1O[C@@H](n2ccc(=O)[nH]c2=O)[C@H](O)[C@@H]1O | false
CC(=O)OC[C@H]1O[C@@H](Sc2ccc(NC(=O)CCC(=O)OC[C@H]3O[C@@H](n4ccc(=O)[nH]c4=O)[C@@H]4OC(C)(C)O[C@@H]43)cn2)[C@H](OC(C)=O)[C@@H](OC(C)=O)[C@@H]1OC(C)=O | false

Is the recorded value of selectivity ratio equal to or greater than 4 for this compound? CC(=O)OC[C@H]1O[C@@H](Sc2ccc(NC(=O)CCC(=O)OC[C@H]3O[C@@H](n4ccc(=O)n(C(=O)c5ccccc5)c4=O)[C@H](O[Si](C)(C)C(C)(C)C)[C@@H]3O[Si](C)(C)C(C)(C)C)cn2)[C@H](OC(C)=O)[C@@H](OC(C)=O)[C@@H]1OC(C)=O
false
